measurement-target: CFTR (Homo sapiens, UniProt P13569, DEL508-508)
Construct: endogenous in cells; host or cells: primary human bronchial epithelial cells, F508del/MF genotype
Sequence (P13569 with tags, fused parts or gaps DEL508-508): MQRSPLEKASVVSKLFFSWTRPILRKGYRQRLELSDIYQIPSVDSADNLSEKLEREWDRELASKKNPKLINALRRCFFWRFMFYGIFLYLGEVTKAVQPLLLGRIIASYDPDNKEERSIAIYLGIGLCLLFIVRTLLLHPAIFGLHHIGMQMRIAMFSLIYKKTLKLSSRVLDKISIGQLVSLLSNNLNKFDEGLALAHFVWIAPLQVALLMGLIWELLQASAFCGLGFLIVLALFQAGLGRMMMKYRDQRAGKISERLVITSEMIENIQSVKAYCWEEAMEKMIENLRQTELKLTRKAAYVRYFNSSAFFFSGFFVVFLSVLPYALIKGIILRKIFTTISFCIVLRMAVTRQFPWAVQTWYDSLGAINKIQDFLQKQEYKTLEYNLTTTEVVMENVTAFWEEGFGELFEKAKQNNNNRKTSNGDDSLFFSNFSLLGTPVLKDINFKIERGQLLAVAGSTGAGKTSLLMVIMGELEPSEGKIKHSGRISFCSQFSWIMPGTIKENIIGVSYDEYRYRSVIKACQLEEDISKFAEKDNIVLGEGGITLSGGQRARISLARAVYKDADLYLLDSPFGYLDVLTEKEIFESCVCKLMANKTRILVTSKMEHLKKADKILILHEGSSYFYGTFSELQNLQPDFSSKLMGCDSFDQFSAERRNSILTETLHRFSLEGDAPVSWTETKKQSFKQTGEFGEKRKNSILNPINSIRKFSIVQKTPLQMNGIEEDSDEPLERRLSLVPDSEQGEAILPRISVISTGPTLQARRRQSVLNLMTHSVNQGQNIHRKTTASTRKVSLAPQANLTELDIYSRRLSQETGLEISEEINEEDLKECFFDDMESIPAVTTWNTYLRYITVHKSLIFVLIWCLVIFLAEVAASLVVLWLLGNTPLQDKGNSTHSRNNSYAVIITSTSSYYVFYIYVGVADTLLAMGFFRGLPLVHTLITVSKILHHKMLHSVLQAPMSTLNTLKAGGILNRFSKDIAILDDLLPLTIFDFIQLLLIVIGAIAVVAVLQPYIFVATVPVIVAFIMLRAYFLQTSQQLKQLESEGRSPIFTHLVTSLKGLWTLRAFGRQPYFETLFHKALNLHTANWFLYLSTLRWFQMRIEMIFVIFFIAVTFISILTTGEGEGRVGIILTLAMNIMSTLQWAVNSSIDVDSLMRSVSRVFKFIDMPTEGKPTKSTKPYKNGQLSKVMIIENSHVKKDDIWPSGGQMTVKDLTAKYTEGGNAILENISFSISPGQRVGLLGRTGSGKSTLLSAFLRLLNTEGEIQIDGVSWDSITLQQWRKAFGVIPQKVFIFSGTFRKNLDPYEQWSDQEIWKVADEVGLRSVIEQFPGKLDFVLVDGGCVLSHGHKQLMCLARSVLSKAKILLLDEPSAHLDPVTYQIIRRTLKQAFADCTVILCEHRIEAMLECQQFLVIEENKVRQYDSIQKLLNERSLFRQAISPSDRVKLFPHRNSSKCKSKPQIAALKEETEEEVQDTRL
test-description: HBE Assay: Ussing chamber assay of CFTR-mediated short-circuit currents in F508del/MF-HBE cells with 1 μM Ivacaftor
Assay type: cell-based
experimental-context: single fixed concentration of 10 μM, with 1 μM Ivacaftor, 20% human serum

| molecule | measurement-target | HBE Activity at 10 μM |
| --- | --- | --- |
| Cc1cccc(C)c1-c1nc2nc(c1C)OC[C@@H](CC(C)(C)C)N(Cc1ncc(N3CCC(C)(C)CC3)cn1)C(=O)c1cccc(c1)S(=O)(=O)N2 | CFTR (Homo sapiens, UniProt P13569, DEL508-508) | +++ (+++ is >600%) |
| Cc1cccc(CC2CCCC2)c1-c1nc2nc(c1C)OC[C@@H](CC(C)(C)C)N(Cc1ccc(N3CCOCC3)cn1)C(=O)c1cccc(c1)S(=O)(=O)N2 (atropisomer, axis not shown) | CFTR (Homo sapiens, UniProt P13569, DEL508-508) | +++ (+++ is >600%) |
| Cc1cccc(OC(C)C)c1-c1nc2nc(c1C)OC[C@@H](CC(C)(C)C)N(Cc1cnc(N(C)CC(C)(C)C)cn1)C(=O)c1cccc(c1)S(=O)(=O)N2 | CFTR (Homo sapiens, UniProt P13569, DEL508-508) | +++ (+++ is >600%) |
| Cc1cccc(CC(C)C)c1-c1nc2nc(c1C)OC[C@@H](CC(C)C)N(Cc1nccc(N(C)C(C)C)n1)C(=O)c1cccc(c1)S(=O)(=O)N2 (atropisomer, axis not shown) | CFTR (Homo sapiens, UniProt P13569, DEL508-508) | +++ (+++ is >600%) |
| Cc1cccc(CC2CCCCC2)c1-c1nc2nc(c1C(F)(F)F)OC[C@@H](CC(C)(C)C)N(Cc1ccc(N3CCOCC3)cn1)C(=O)c1cccc(c1)S(=O)(=O)N2 (atropisomer, axis not shown) [Compound 248] | CFTR (Homo sapiens, UniProt P13569, DEL508-508) | +++ (+++ is >600%) |
| Cc1cccc(CC2CCCCC2)c1-c1nc2nc(c1C(F)(F)F)OC[C@@H](CC(C)(C)C)N(Cc1ncc(N3CCOCC3)cn1)C(=O)c1cccc(c1)S(=O)(=O)N2 (atropisomer, axis not shown) | CFTR (Homo sapiens, UniProt P13569, DEL508-508) | ++ (++ is 30-60%) |
| Cc1cccc(C(C)C)c1-c1nc2nc(c1C)OC[C@@H](CC(C)(C)C)N(Cc1cnc(C3CCOCC3)cn1)C(=O)c1cccc(c1)S(=O)(=O)N2 (atropisomer, axis not shown) [Compound 319] | CFTR (Homo sapiens, UniProt P13569, DEL508-508) | +++ (+++ is >600%) |
| Cc1cccc(CC2CCCCC2)c1-c1nc2nc(c1C(F)(F)F)OC[C@@H](CC(C)(C)C)N(Cc1ccc(N3CCOCC3)cn1)C(=O)c1cccc(c1)S(=O)(=O)N2 (atropisomer, axis not shown) [Compound 249] | CFTR (Homo sapiens, UniProt P13569, DEL508-508) | ++ (++ is 30-60%) |
| Cc1cccc(CC2CCOCC2)c1-c1nc2nc(c1C)OC[C@@H](CC(C)(C)C)N(Cc1ncc(N3CCC(C)(C)C3)cn1)C(=O)c1cccc(c1)S(=O)(=O)N2 (atropisomer, axis not shown) [Compound 271] | CFTR (Homo sapiens, UniProt P13569, DEL508-508) | +++ (+++ is >600%) |
| Cc1cccc(CC2CCCC2)c1-c1nc2nc(c1C)OC[C@@H](CC(C)(C)C)NC(=O)c1cccc(c1)S(=O)(=O)N2 (atropisomer, axis not shown) [Compound 225] | CFTR (Homo sapiens, UniProt P13569, DEL508-508) | +++ (+++ is >600%) |
